Molecular target: Thyroid hormone receptor alpha (Rattus norvegicus) + Thyroid hormone receptor beta (Rattus norvegicus) (UniProt P18113+P63059)
Experiment: TOX21_TR_LUC_GH3_Antagonist_Followup: Tox21 GH3 Thyroid Hormone Receptor Antagonism Luciferase Follow-Up Assay (AID 2283942)
Inconclusive results are not listed. Activity calls are given as the source filed them. Rule for the calls: active = hit-call score of the fitted dose curve at least 0.9, where 1 is the maximum; inconclusive = response in the unintended direction; inactive = score below 0.9.
Tick one outcome: true = active, false = inactive

Completed entries (count: 5):
smiles_notation=O=C(CCCCCCC(=O)Nc1ccccc1)NO qualitative_label=true
smiles_notation=Cc1c(Nc2ncccc2C(=O)O)cccc1C(F)(F)F qualitative_label=false
smiles_notation=Nc1c2ccccc2nc2ccccc12 qualitative_label=true
smiles_notation=O=[Se](O)O qualitative_label=true
smiles_notation=Oc1c(I)cc(I)c2cccnc12 qualitative_label=false

Could you now consider this next compound?
What classification did CCCCCCNC(=O)n1cc(F)c(=O)[nH]c1=O end up with in this test?
true
